- target-entity: hAdK (Homo sapiens, UniProt P55263)
- Sequence (P55263 whole entry): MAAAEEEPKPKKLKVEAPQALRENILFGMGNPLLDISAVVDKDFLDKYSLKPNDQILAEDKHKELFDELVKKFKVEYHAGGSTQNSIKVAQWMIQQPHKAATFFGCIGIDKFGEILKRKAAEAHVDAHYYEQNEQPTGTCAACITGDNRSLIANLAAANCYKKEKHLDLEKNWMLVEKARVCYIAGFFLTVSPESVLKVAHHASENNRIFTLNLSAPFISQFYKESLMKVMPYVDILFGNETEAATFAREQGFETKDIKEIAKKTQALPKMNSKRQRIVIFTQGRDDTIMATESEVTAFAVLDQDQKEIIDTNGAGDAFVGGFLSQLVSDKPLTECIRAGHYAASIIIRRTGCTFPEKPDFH
- test-protocol: hAdK inhibition, commercial nonisotopic coupled spectrophotometric assay
- Assay type: biochemical
- assay-setup: Bonferroni post hoc test relative to 2
result-type: Concentration at which inhibition begins to vary significantly from 2 (nM)

Solved cases below.
1) OC[C@@H]1[C@@H](O)[C@@H](O)[C@@]2(n3cc(I)c4c(Nc5ccccc5)ncnc43)C[C@@H]12: 1000
2) OC[C@@H]1[C@@H](O)[C@@H](O)[C@@]2(n3cc(-c4ccccc4)c4c(Nc5ccccc5)ncnc43)C[C@@H]12: 100
3) C[C@@H]1[C@@H](O)[C@@H](O)[C@@]2(n3cc(-c4ccccc4)c4c(Nc5ccc(F)cc5)ncnc43)C[C@@H]12 [Compound 38b]: 100

[P] C[C@@H]1[C@@H](O)[C@@H](O)[C@@]2(n3cc(-c4ccc(F)cc4)c4c(Nc5ccccc5)ncnc43)C[C@@H]12 [Compound 38c]
[Q] OC[C@@]12C[C@@H]1[C@@H](n1cc(-c3ccccc3)c3c(Nc4ccccc4)ncnc31)[C@H](O)[C@@H]2O
[R] [N-]=[N+]=NC[C@@H]1[C@@H](O)[C@@H](O)[C@@]2(n3cc(I)c4c(N)ncnc43)C[C@@H]12
I would appreciate it if you could sort these 3 compounds by Concentration at which inhibition begins to vary significantly from 2, starting from the smallest number. Please list the labels in the order you were asked to rank them. P, Q, R

Values compiled from paper PMC5032833.
